test: pharmacokinetics after IV and IP administration; assay type: in vivo, Balb/c mice; conditions: Balb/c, mouse, plasma, ip, 30 mg/kg, IP 30 mg/kg; read-out: AUC0-int (second line)
endpoint: AUC (µg·h/mL)
Please reply with the bare figure in µg·h/mL and do not write the unit itself.

Per the record, `Cc1cc(NC(=O)c2nc3[nH]c4c(c(=O)n3n2)CCC4)c(C)cc1NC(=O)CCc1nnc(-c2ccccc2)o1` has AUC of 1180

====

biological target: MDA-9 PDZ12 tandem domain (PDZ1) (Homo sapiens, UniProt O00560); construct: the MDA-9/Syntenin construct used for the screen contains both PDZ domains; made in house; assay: NMR [15N,1H] HSQC chemical shift change and titration binding; settings: fragment hits, FIG. 55B; read-out: Kd
Sequence (O00560 110-274): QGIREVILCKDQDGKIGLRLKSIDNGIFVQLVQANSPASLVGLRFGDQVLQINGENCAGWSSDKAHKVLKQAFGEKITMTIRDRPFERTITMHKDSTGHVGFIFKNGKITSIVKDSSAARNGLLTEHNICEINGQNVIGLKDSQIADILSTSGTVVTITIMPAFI
endpoint: Kd

Test item `Cc1cc(=O)n2nc(C(=O)Nc3cc(Cl)c(N)cc3Cl)nc2[nH]1` ; MDA-9 PDZ12 tandem domain (PDZ1) (Homo sapiens, UniProt O00560); reported Kd was ~300 µM
